This collection of values is drawn from patent US10882859B2.

experiment: Systemic pharmacokinetics and total colon tissue distribution after single oral administration; type: in vivo, male C57BL/6 mice; details: male, C57BL/6, mouse; mice, oral 10 mg/kg, plasma, 0.5 h; read-out: Mean plasma concentration
readoutType: concentration at 0.5 h (ng/mL)

>  <compound>
CCc1cc(O)c(F)cc1-c1ccc2c(-c3nc4c([nH]3)CCN(C(=O)c3cnc(N5CCCCC5)cn3)C4)n[nH]c2c1 [Reference Compound, reference compound]

>  <concentration at 0.5 h (ng/mL)>
5.2

$$$$
>  <compound>
CCc1cc(O)c(F)cc1-c1ccc2c(-c3nc4c([nH]3)CCN(C(=O)N3CCOCC3)C4)n[nH]c2c1 [Example 1]

>  <concentration at 0.5 h (ng/mL)>
6.1

$$$$

* * *

experiment: Systemic pharmacokinetics and total colon tissue distribution after single oral administration; type: in vivo, male C57BL/6 mice; settings: male, C57BL/6, mouse; mice, oral 10 mg/kg, plasma, 8 h; read-out: Mean plasma concentration
readoutType: concentration at 8 h (ng/mL)

[A] CCc1cc(O)c(F)cc1-c1ccc2c(-c3nc4c([nH]3)CCN(C(=O)c3cnc(N5CCCCC5)cn3)C4)n[nH]c2c1 [Reference Compound, reference compound]
[B] CCc1cc(O)c(F)cc1-c1ccc2c(-c3nc4c([nH]3)CCN(C(=O)N3CCOCC3)C4)n[nH]c2c1
[ask] I'm curious, which of these has a smaller concentration at 8 h number: A or B ? Return value: the label identifying the chosen record.
[reply] B
(B: 0 ng/mL, A: 95 ng/mL)

* * *

assay: Systemic pharmacokinetics and total colon tissue distribution after single oral administration; format: in vivo, male C57BL/6 mice; details: male, C57BL/6, mouse; mice, oral 10 mg/kg, plasma, 2 h; read-out: Mean plasma concentration
readoutType: concentration at 2 h (ng/mL)

>  <compound>
CCc1cc(O)c(F)cc1-c1ccc2c(-c3nc4c([nH]3)CCN(C(=O)c3cnc(N5CCCCC5)cn3)C4)n[nH]c2c1 [Reference Compound, reference compound]

>  <valueUnits>
ng/mL

>  <concentration at 2 h>
2.2

$$$$
>  <compound>
CCc1cc(O)c(F)cc1-c1ccc2c(-c3nc4c([nH]3)CCN(C(=O)N3CCOCC3)C4)n[nH]c2c1

>  <valueUnits>
ng/mL

>  <concentration at 2 h>
1.9

$$$$

* * *

test: Systemic pharmacokinetics and total colon tissue distribution after single oral administration; assay type: in vivo, male C57BL/6 mice; details: male, C57BL/6, mouse; mice, oral 10 mg/kg, plasma, 24 h; read-out: Mean plasma concentration
readoutType: concentration at 24 h (ng/mL)

>  <compound>
CCc1cc(O)c(F)cc1-c1ccc2c(-c3nc4c([nH]3)CCN(C(=O)N3CCOCC3)C4)n[nH]c2c1

>  <concentration at 24 h [ng/mL]>
0

$$$$
>  <compound>
CCc1cc(O)c(F)cc1-c1ccc2c(-c3nc4c([nH]3)CCN(C(=O)c3cnc(N5CCCCC5)cn3)C4)n[nH]c2c1 [Reference Compound, reference compound]

>  <concentration at 24 h [ng/mL]>
0

$$$$

* * *

biological target: JAK2 (Homo sapiens (Human))
Sequence (O60674 whole entry): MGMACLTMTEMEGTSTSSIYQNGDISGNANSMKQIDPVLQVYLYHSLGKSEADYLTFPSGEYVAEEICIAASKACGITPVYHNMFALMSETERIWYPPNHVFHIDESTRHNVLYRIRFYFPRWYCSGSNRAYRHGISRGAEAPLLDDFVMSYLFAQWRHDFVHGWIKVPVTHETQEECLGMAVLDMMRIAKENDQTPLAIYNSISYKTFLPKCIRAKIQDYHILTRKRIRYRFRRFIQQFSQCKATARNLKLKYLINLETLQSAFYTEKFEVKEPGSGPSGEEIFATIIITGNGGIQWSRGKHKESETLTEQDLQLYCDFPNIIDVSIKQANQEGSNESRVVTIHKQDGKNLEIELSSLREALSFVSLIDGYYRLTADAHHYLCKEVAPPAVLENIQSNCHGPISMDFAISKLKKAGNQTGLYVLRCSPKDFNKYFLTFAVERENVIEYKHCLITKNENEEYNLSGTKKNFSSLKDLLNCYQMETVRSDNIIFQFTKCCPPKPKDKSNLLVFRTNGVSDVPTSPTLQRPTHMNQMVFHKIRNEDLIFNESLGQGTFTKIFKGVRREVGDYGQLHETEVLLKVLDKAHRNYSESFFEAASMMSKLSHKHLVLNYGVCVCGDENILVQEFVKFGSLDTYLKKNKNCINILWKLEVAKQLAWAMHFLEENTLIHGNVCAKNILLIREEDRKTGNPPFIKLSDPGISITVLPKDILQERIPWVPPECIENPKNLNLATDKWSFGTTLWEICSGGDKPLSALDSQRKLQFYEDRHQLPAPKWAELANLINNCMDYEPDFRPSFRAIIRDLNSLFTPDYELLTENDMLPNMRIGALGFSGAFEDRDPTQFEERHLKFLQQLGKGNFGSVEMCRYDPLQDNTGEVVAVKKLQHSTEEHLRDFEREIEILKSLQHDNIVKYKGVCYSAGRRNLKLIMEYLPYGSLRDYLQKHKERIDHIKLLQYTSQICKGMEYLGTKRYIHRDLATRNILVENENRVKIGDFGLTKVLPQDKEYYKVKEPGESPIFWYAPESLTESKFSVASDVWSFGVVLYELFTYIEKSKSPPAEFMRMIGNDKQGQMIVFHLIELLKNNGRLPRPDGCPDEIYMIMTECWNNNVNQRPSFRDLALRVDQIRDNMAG
readoutType: Kd (nM)
Write the number in nM without appending the unit.

[ask] Report Kd for CCc1cc(O)c(F)cc1-c1ccc2c(-c3nc4c([nH]3)CCN(C(=O)N3CCOCC3)C4)n[nH]c2c1 [Example 1] tested on JAK2 (Homo sapiens (Human)).
[reply] 0.052
